A collection of molecules and their measured pIC50
# target desc: CIB1 and αIIb interaction (CIB1-GST : F-αIIb peptide) (Homo sapiens, UniProt Q99828)
# Construct: made in house; host or cells: BL-21 plus RIL cells (E. coli)
# assay method text: FP assay, 1536-well qHTS format (primary and confirmatory screen)
# Assay type: binding
# details: qHTS primary screen of LOPAC/NPACT libraries; read-out: IC50
pIC50: −log10 of the molar value.
measurement type: pIC50

> print(dat)
                                   molecule  measurement.type  value
1  Oc1cc(O)cc(/C=C/c2ccc(O)c(O)c2)c1 [NCGC00094226-07]             pIC50   5.49
2  C=C1C(=O)O[C@@H]2C(OC(=O)/C(C)=C\C)/C(C)=C\C(=O)/C=C(\C)C[C@H](O)[C@@H]12 (stereo partly shown) [NCGC00381208-01]             pIC50   5.80
3  Cc1cccc(C)c1-n1c(=O)c2cnc(Nc3ccc(N4CCN(C)CC4)cc3)nc2n2c3ccccc3nc12 [NCGC00378811-02]             pIC50   4.25
4  CCOc1cc(C(=O)N2CCC(N3CCN(C)CC3)CC2)ccc1Nc1ncc2c(n1)N(C1CCCC1)c1ccccc1C(=O)N2C [NCGC00378965-03]             pIC50   4.25

====

# target desc: CIB1 and αIIb interaction (CIB1-GST : F-αIIb peptide) (Homo sapiens, UniProt Q99828)
# Construct: made in house; host or cells: BL-21 plus RIL cells (E. coli)
# assay method text: FP assay, 1536-well qHTS format (primary and confirmatory screen)
# Assay type: binding
# details: Table S3, confirmatory screen, qHTS curve class; a negative sign marks inhibitory curves
A collection of compounds and their measured Curve Class (confirmatory screen)

compound	Curve Class (confirmatory screen)
COc1c(O)cccc1[C@H](O)C1CCN(CCc2ccc(F)cc2)CC1	-2.4
NC(=O)C1CCN(c2nc(-c3ccccc3N)cs2)CC1.O=C(O)C(F)(F)F	4
CO[C@H](C(=O)[C@@H](O)[C@@H](C)O)[C@@H]1Cc2cc3cc(C[C@H]4C[C@H](O[C@H]5C[C@@H](O)[C@H](O)[C@@H](C)O5)[C@@H](O)[C@@H](C)O4)c(C)c(O)c3c(O)c2C(=O)[C@H]1O[C@@H]1C[C@H](O[C@@H]2C[C@H](O[C@@H]3C[C@](O)(CO)[C@@H](O)[C@H](C)O3)[C@@H](O)[C@H](C)O2)[C@@H](O)[C@H](C)O1	-2.1
CC(=O)Nc1sc2c(c1-c1nc3ccccc3s1)CNC2.O=C(O)C(F)(F)F	4
CC(C)c1nc(Nc2nc3ccccc3o2)nc2c1CCCC2.O=C(O)C(F)(F)F	4
O=C(O)C(F)(F)F.O=C(O)c1ccc(-c2ccc3ncnc(N4CCOCC4)c3c2)o1	-1.4
O=C(O)C(F)(F)F.O=C1CC(c2ccccc2Cl)c2sc(N3CCOCC3)nc2N1 (stereo not drawn)	-2.4
COc1cccc(C(=O)c2no[n+]([O-])c2C(=O)c2cccc(OC)c2)c1	-1.4
COc1ccc(CC(NC(C)=O)C(=O)O)cc1 (stereo not drawn)	-2.2
COc1ccc2[nH]c([S+]([O-])Cc3ncc(C)c(OC)c3C)nc2c1 (stereo not drawn)	-1.2
O=C(O)C(F)(F)F.O=C1Nc2ccccc2/C1=N/NC(=S)NCc1ccccc1	4
CCOc1ccc(CCNC(=O)c2ccc(N3N=C(C)CC3=O)cc2)cc1OCC.O=C(O)C(F)(F)F	4
O=C(O)C(F)(F)F.O=S(=O)(Nc1nccs1)c1ccc(Nc2nc(-c3ccccc3)cs2)cc1	-2.2
O=C(O)c1ccccc1SC1=NS(=O)(=O)c2ccccc21	4
Nc1cccc2c1C(=O)N(C1CCC(=O)NC1=O)C2=O (stereo not drawn)	-2.2

====

# target desc: CIB1 and αIIb interaction (CIB1-GST : F-αIIb peptide) (Homo sapiens)
# Construct: made in house; host or cells: BL-21 plus RIL cells (E. coli)
# assay method text: FP assay, 1536-well qHTS format (primary and confirmatory screen)
# Type: binding
# details: qHTS primary screen hits, Table S2; negative = inhibition
Each entry gets False if its Efficacy (%) stays under -40%, and True if its Efficacy (%) is -40% or above.

> print(dat)
                               entry.smiles                               target.desc  group
1  Cc1ccc(Cl)cc1NC(=O)c1nc[nH]c1C(=O)Nc1nc2ccccc2[nH]1  CIB1 and αIIb interaction (CIB1-GST : F-αIIb peptide) (Homo sapiens)  False
2  O=C(O)C(F)(F)F.O=C1CCC2=C1C1(CCCC1)N=C(Nc1nc3ccccc3o1)N2  CIB1 and αIIb interaction (CIB1-GST : F-αIIb peptide) (Homo sapiens)   True
3  O=C(CCCN1CCC(n2c(=O)[nH]c3ccccc32)CC1)c1ccc(F)cc1  CIB1 and αIIb interaction (CIB1-GST : F-αIIb peptide) (Homo sapiens)  False
4           O=S1(=O)N=C(Oc2ccccc2)c2ccccc21  CIB1 and αIIb interaction (CIB1-GST : F-αIIb peptide) (Homo sapiens)   True

====

A collection of compounds and their measured COUNTERSCREEN Efficacy (%)
# target desc: GST-CIB1 : F-scrambled peptide (Homo sapiens)
# Construct: made in house; host or cells: BL-21 plus RIL cells (E. coli)
# assay method text: FP scrambled-peptide counter screen, 1536-well format
# Type: binding
# details: counterscreen
measurement type: COUNTERSCREEN Efficacy (%)

> print(dat)
                               entry.smiles  units.symbol  value
1  COC(=O)c1ccc(O)c2ncc(-c3ccc(C(=O)N4CCNCC4)cc3)cc12.O=C(O)C(F)(F)F             %    -25
2  O=C(c1ccccc1)c1c(O)cc(O)cc1O[C@@H]1O[C@H](CO)[C@@H](O)[C@H](O)[C@H]1O             %    -31
3  O=C(O)C(F)(F)F.O=C1CCCC2=C1C1(CCOCC1)N=C(Nc1nc3ccccc3o1)N2             %    -16
4     CN(C)CCN1C(=O)c2cccc3cc(N)cc(c23)C1=O             %    -24

====

# target desc: GST-CIB1 : F-scrambled peptide (Homo sapiens, UniProt Q99828)
# Construct: made in house; host or cells: BL-21 plus RIL cells (E. coli)
# Sequence (Q99828 1-191): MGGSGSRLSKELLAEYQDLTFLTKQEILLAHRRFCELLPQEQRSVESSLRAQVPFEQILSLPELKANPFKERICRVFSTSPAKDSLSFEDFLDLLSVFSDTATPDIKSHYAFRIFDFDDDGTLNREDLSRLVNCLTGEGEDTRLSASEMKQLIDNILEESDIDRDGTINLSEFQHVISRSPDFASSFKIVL
# assay method text: FP scrambled-peptide counter screen, 384-well format
# Format: binding
# details: F-scrambled peptide; *: Curve in opposite direction
measurement type: 384-well COUNTERSCREEN Confirm?

> print(dat)
                                   molecule                 measurement.type  value
1  Cc1cc(F)ccc1S(=O)(=O)Nc1cnccc1C(=O)Nc1nc(-c2ccccc2)cs1 [NCGC00345106-03]  384-well COUNTERSCREEN Confirm?    YES
2  CCCCCc1c2c(cc(O)c1C(=O)O)OC(=O)c1c(cc(OC)cc1C(=O)CCCC)O2.O=C(O)C(F)(F)F [NCGC00095570-05]  384-well COUNTERSCREEN Confirm?    YES
3  Brc1c(Br)c(Br)c2[nH]nnc2c1Br [NCGC00092352-04, 4,5,6,7-tetrabromobenzotriazole, reference compound]  384-well COUNTERSCREEN Confirm?    YES
4  CCOC(=O)N1CCN([N+]([O-])=NOc2ccc([N+](=O)[O-])cc2[N+](=O)[O-])CC1 [NCGC00165815-03]  384-well COUNTERSCREEN Confirm?    YES

====

# target desc: CIB1 and αIIb interaction (CIB1-GST : F-αIIb peptide) (Homo sapiens)
# Construct: made in house; host or cells: BL-21 plus RIL cells (E. coli)
# assay method text: FP assay, 1536-well qHTS format (primary and confirmatory screen)
# Type: binding
# details: qHTS primary screen hits, Table S2; negative = inhibition
measurement type: Efficacy (%)

> print(dat)
                                    molecule                               target.desc  value
 1         COc1ccc(NS(=O)(=O)c2ccc(N)cc2)nn1  CIB1 and αIIb interaction (CIB1-GST : F-αIIb peptide) (Homo sapiens)  -139%
 2                    CNC[C@H](O)c1cccc(O)c1  CIB1 and αIIb interaction (CIB1-GST : F-αIIb peptide) (Homo sapiens)   -15%
 3  Cc1cc(N2CCN(c3ccccc3)CC2)nc(-n2nc(C)cc2C)n1.O=C(O)C(F)(F)F  CIB1 and αIIb interaction (CIB1-GST : F-αIIb peptide) (Homo sapiens)   -30%
 4                    S=P(N1CC1)(N1CC1)N1CC1  CIB1 and αIIb interaction (CIB1-GST : F-αIIb peptide) (Homo sapiens)   -44%
 5  NC(=O)c1ncn([C@@H]2O[C@H](CO)[C@@H](O)[C@H]2O)c1O  CIB1 and αIIb interaction (CIB1-GST : F-αIIb peptide) (Homo sapiens)   -52%
 6  CC(=O)NCc1ccc(-c2csc(Nc3cc(C)cc(C)c3)n2)o1.O=C(O)C(F)(F)F  CIB1 and αIIb interaction (CIB1-GST : F-αIIb peptide) (Homo sapiens)   -84%
 7  O=C(O)C(F)(F)F.c1ccc(-n2cc(-c3nnc4n3CCCCC4)cn2)cc1  CIB1 and αIIb interaction (CIB1-GST : F-αIIb peptide) (Homo sapiens)   -39%
 8  O=C(N/N=C1\C(=O)N(CCc2ccccc2)c2ccccc21)c1cccnc1  CIB1 and αIIb interaction (CIB1-GST : F-αIIb peptide) (Homo sapiens)   -28%
 9  COc1cccc(C(=O)c2no[n+]([O-])c2C(=O)c2cccc(OC)c2)c1  CIB1 and αIIb interaction (CIB1-GST : F-αIIb peptide) (Homo sapiens)   -53%
10  N#Cc1cnc(NS(=O)(=O)c2ccc(NC(=O)Cc3ccc(F)c(Cl)c3)cc2)s1.O=C(O)C(F)(F)F  CIB1 and αIIb interaction (CIB1-GST : F-αIIb peptide) (Homo sapiens)   -29%
11  CCCCCCCCCCCCCCCC[N+](C)(C)CCN(Cc1ccc(OC)cc1)c1ncccn1.[Br-]  CIB1 and αIIb interaction (CIB1-GST : F-αIIb peptide) (Homo sapiens)   -71%
12   Cc1cc(Cl)ccc1-n1c(CCC(=O)O)ccc1-c1cccs1  CIB1 and αIIb interaction (CIB1-GST : F-αIIb peptide) (Homo sapiens)   -33%
13  CO/N=C(\C(=O)N[C@@H]1C(=O)N2C(C(=O)O)=C(Cn3nnc(C)n3)CS[C@H]12)c1csc(N)n1  CIB1 and αIIb interaction (CIB1-GST : F-αIIb peptide) (Homo sapiens)  -171%
14            O=C1c2ccccc2-c2n[nH]c3cccc1c23  CIB1 and αIIb interaction (CIB1-GST : F-αIIb peptide) (Homo sapiens)   -52%
15        Cc1ccc([N+](=O)[O-])[c]2c1[O][Hg]2  CIB1 and αIIb interaction (CIB1-GST : F-αIIb peptide) (Homo sapiens)   -49%
16  Cc1ccccc1C(=O)N1CCc2cc(-c3nc(NC(=O)Cc4ccc(OCCOCCOCCN)cc4)sc3C)ccc21.O=C(O)C(F)(F)F  CIB1 and αIIb interaction (CIB1-GST : F-αIIb peptide) (Homo sapiens)   -25%
17  O=C1CCCC2=C1C(c1n[nH]cc1Br)N=C(Nc1nc3ccccc3o1)N2 (centres unmarked)  CIB1 and αIIb interaction (CIB1-GST : F-αIIb peptide) (Homo sapiens)   -18%
